# melting point annotations

Use the examples below as a reference point.
| compound | melting point |
| --- | --- |
| O=C(O)COc1ccc2cc(-c3cnc(-c4cn(Cc5ccccc5)c5ccccc45)o3)ccc2c1 | 238 to 242 °C |
| CCCCc1oc2ccccc2c1-c1ncc(-c2ccc3c(Br)c(OCc4ccc(C(=O)O)cc4)ccc3c2)o1 | 281 to 283 °C |
| O=C(O)COc1ccc2cc(-c3cnc(Cc4ccc5ccccc5c4)o3)ccc2c1 | 258 to 260 °C |

Note to self: melting point recorded for `Cn1cc(-c2ncc(-c3ccc4cc(OCc5nnn[nH]5)ccc4c3)o2)c2ccccc21` was 254 to 256 °C

Memo: Cn1cc(-c2ncc(-c3ccc4cc(OC(Cc5ccccc5)C(=O)O)ccc4c3)o2)c2ccccc21 (centres unmarked) , reported melting point: 149 to 151 °C

The compound identified as O=C(O)C(Cc1ccccc1)Oc1ccc2cc(-c3cnc(Cc4ccccc4)o3)ccc2c1 (centres unmarked) registered its melting point at 78 to 82 °C

For record `Cn1cc(-c2ncc(-c3ccc4cc(OCC(=O)O)ccc4c3)o2)c2ccccc21` the listed melting point is 269 to 272 °C

Entry `CCCCc1oc2ccccc2c1-c1ncc(-c2ccc3cc(OCC(=O)O)ccc3c2)o1` ; melting point = 214 to 216 °C
